The measured values listed here are drawn from the METLIN SMRT retention time set (Domingo-Almenara et al. 2019).

assay.info: gradient 5% acetonitrile 3 min, to 50% in 2 min, to 85% in 15 min, held 3 min, 100 µL/min
stated.conditions: column: Zorbax Extend-C18 2.1 x 50 mm; eluents: water / acetonitrile, 0.1% formic acid
Decision: RP-LC retention time >= 900 s yields True, all other cases yield False.

Q) Does the molecule Cc1ccc(S(=O)(=O)CC(=O)Nc2nc(-c3ccc4ccccc4c3)cs2)cc1 have recorded RP-LC retention time that is 900 s or more?
A) True

Q) Check this molecule for RP-LC retention time at or above 900 s: Cn1c(=O)n(Cc2ccc(Br)cc2F)c(=O)c2cnc(-c3cccnc3)nc21
A) True

Q) Answer whether RP-LC retention time of Cc1cc(=O)n(CC(=O)NCc2ccccc2)c(N(C)Cc2ccccc2)n1 is greater than or equal to 900 s.
A) False

Q) RP-LC retention time >= 900 s for Cc1ccc(-c2cc3c(=O)n(Cc4noc(CN5CCN(C)CC5)n4)ccn3n2)cc1C ?
A) False

Q) Check this molecule for RP-LC retention time at or above 900 s: CCc1ccc2nc(Nc3nc(C)c4c(n3)CCCC4)nc(C)c2c1
A) False

Q) Does COc1ccc(Cl)cc1N1C=C(C#N)S(=O)(=O)c2ccc(F)cc21 have a reported RP-LC retention time of at least 900 s?
A) True

Q) Could you please find out whether Cc1c(Cl)cccc1NC(=O)Cn1c(=O)cc(-c2nc(C(C)C)no2)c2ccccc21 has RP-LC retention time that meets 900 s or exceeds it?
A) True

Q) Could you please find out whether CN(Cc1ccccc1)C(=O)C1CCCN(c2nnc(N3CCCC3=O)s2)C1 (stereo not drawn) has RP-LC retention time that meets 900 s or exceeds it?
A) False

Q) Could you verify whether the entry O=C(O)c1ccc2c(c1)N(S(=O)(=O)c1ccccc1F)CC2 shows RP-LC retention time of no less than 900 s?
A) False

Q) # bool: RP-LC retention time of CCOC(=O)c1cccc(N2C=C(C#N)S(=O)(=O)c3ccc(F)cc32)c1 >= 900 s
A) True
